System: A498 renal
Measurement Description: NCI-60 one-dose screen, 48 h
Assay Context: 10 µM unless noted
This is part of a sample that, as a whole, favours compounds with a hit. Of some 83,000 tested, about 20% had one in any assay. Calls of active or inactive are those of the source. The calls were made as follows: active = growth percent below 10; inactive = the rest.
// allowed return values: 1 (yes) for active, 0 (no) for inactive

[ask] I would be grateful if you could indicate the recorded call for `COc1ccc(/C=C/c2c(C(=O)/C=C/c3ccccc3)c(C)nc3ccccc23)cc1` .
[reply] 0 (no)

[ask] I would be grateful if you could indicate the recorded call for `CN1CCN(C(=O)C(C)(C)c2ccc(C(=O)Nc3cn4cc(-c5ccncc5)ccc4n3)cc2)CC1` .
[reply] 1 (yes)

[ask] I would be grateful if you could indicate the recorded call for `CCOC(=O)c1c(C)nc2c(c1N)CC(=O)N2Cc1ccc(OC)cc1` .
[reply] 0 (no)

[ask] I would be grateful if you could indicate the recorded call for `S=c1[nH]c(=S)c2c(-c3ccccc3)c(-c3ccccc3)oc2[nH]1` .
[reply] 0 (no)

[ask] I would be grateful if you could indicate the recorded call for Nc1nc(N)c2c(n1)NC(c1cccc(Nc3ccnc4cc(C(F)(F)F)ccc34)c1)CC(c1ccccc1)=N2 (configuration not stated) .
[reply] 0 (no)

[ask] I would be grateful if you could indicate the recorded call for `CN1CCN(CC(=O)Nc2ccc3ncnc(Nc4ccc(Oc5cccc(C(F)(F)F)c5)c(Cl)c4)c3c2)CC1` .
[reply] 0 (no)

[ask] I would be grateful if you could indicate the recorded call for CCC1S/C(=N\N=C(\C)c2cc3cc(Cl)ccc3o2)N(c2ccccc2)C1=O (configuration not stated) .
[reply] 0 (no)

[ask] I would be grateful if you could indicate the recorded call for `CCCCNC(=O)Oc1ccc(/C(=C(/C)Cc2ccc(OC)cc2)c2ccc(OCCN3CCCCCC3)cc2)cc1` .
[reply] 0 (no)

[ask] I would be grateful if you could indicate the recorded call for `O=C1/C(=C/c2ccc(F)cc2)CN(C(=O)C(Cl)Cl)C/C1=C\c1ccc(F)cc1` .
[reply] 1 (yes)

[ask] I would be grateful if you could indicate the recorded call for `CC1(C)CC[C@]23CC[C@]4(C)[C@H](CC[C@@H]5[C@@]6(C)C/C(=C/c7ccncc7)C(=O)C(C)(C)[C@@H]6CC[C@]54C)[C@H]2[C@H]1OC3` .
[reply] 1 (yes)

[ask] I would be grateful if you could indicate the recorded call for `CCn1cc(CNc2ccc(C(=O)Nc3cc4cc(OC)c(OC)cc4c(C)n3)cc2)cn1` .
[reply] 0 (no)

[ask] I would be grateful if you could indicate the recorded call for `Cn1cc(-c2csc(-c3c[nH]c4ccc(F)cc34)n2)c2ccnc(Cl)c21` .
[reply] 0 (no)

[ask] I would be grateful if you could indicate the recorded call for `CN(CCCNC(=O)CCOCCOCCOCCNC(=O)Cc1ccc2ccc3cccc4ccc1c2c34)CCCNc1cc(-c2ccc3ccccc3c2)nc2ccccc12` .
[reply] 1 (yes)

[ask] I would be grateful if you could indicate the recorded call for `CCc1n(Cc2ccc3ccccc3n2)cc[n+]1Cc1ccc2ccccc2n1` .
[reply] 0 (no)

[ask] I would be grateful if you could indicate the recorded call for `CC1(C)[C@@H](O[C@@H]2OC[C@@H](O[C@@H]3O[C@H](CO)[C@@H](O)[C@H](O)[C@H]3O[C@@H]3OC[C@@H](O)[C@H](O)[C@H]3O)[C@H](O)[C@H]2O[C@@H]2O[C@H](CO)[C@@H](O)[C@H](O)[C@H]2O)CC[C@]2(C)[C@H]3CC[C@]45OC[C@@]6(CC[C@](C)(C=O)C[C@H]64)[C@H](O)C[C@@]5(C)[C@]3(C)CC[C@@H]12` .
[reply] 1 (yes)

[ask] I would be grateful if you could indicate the recorded call for `COc1ccc2c(c1)CCc1[nH]nc(-c3cc(OC)c(OC)c(OC)c3)c1-2` .
[reply] 1 (yes)

[ask] I would be grateful if you could indicate the recorded call for `Cc1cccc(N2CCC(=O)NC2=S)c1` .
[reply] 0 (no)

[ask] I would be grateful if you could indicate the recorded call for CCO/C=N/C1=C(C#N)C(c2ccc(F)cc2)c2sc3c(F)cccc3c2O1 (configuration not stated) .
[reply] 0 (no)

[ask] I would be grateful if you could indicate the recorded call for `O=C1C(Nc2ccccn2)=C(I)C(=O)c2ncccc21` .
[reply] 0 (no)

[ask] I would be grateful if you could indicate the recorded call for `Cc1ccnc(Nc2ccc([N+](=O)[O-])c(NCCN3CCOCC3)n2)c1` .
[reply] 0 (no)

[ask] I would be grateful if you could indicate the recorded call for Cc1cccc2c1C[C@@]1(C2=O)C(c2ccc(C(C)(C)C)cc2)=NOS1=O (some centres not stated) .
[reply] 0 (no)

[ask] I would be grateful if you could indicate the recorded call for CCN1C(=O)N(CC)C2C1NN=c1s/c(=C3\C(=O)N(CC(C)C)c4ccccc43)c(=O)n12 (configuration not stated) .
[reply] 1 (yes)

[ask] I would be grateful if you could indicate the recorded call for `CCOC(=O)/C=C1\S/C(=N\Nc2cc(=O)[nH]c3ccccc23)N(c2ccccc2)C1=O` .
[reply] 0 (no)

[ask] I would be grateful if you could indicate the recorded call for `O=C(Cc1cccc(OC(F)(F)F)c1)Nc1ccc(CCCCc2nnc(NC(=O)Cc3ccccn3)s2)nn1` .
[reply] 0 (no)

[ask] I would be grateful if you could indicate the recorded call for O=C(NC(Cc1nnc2n(Cc3ccccc3)c(=O)c3c4c(sc3n12)CCCC4)c1ccccc1)c1ccccc1 (configuration not stated) .
[reply] 0 (no)

[ask] I would be grateful if you could indicate the recorded call for `CCSc1oc(C)nc1[P+](c1ccccc1)(c1ccccc1)c1ccccc1` .
[reply] 0 (no)

[ask] I would be grateful if you could indicate the recorded call for C/C=C(\C)C(=O)N[C@H]1C(O)C[C@]2(C)C3CC[C@@]4(C)C(CC[C@@H]4C(C)N(C)C)C3CCC2C1O (some centres not stated) .
[reply] 0 (no)

[ask] I would be grateful if you could indicate the recorded call for `Oc1c(CN2CCC(N3CCCCC3)CC2)cc(Cc2cc(CN3CCC(N4CCCCC4)CC3)c(O)c3ncccc23)c2cccnc12` .
[reply] 0 (no)

[ask] I would be grateful if you could indicate the recorded call for CO[C@H](C(=O)[C@@H](O)[C@@H](C)O)[C@@H]1Cc2cc3cc(O[C@H]4C[C@@H](O[C@H]5C[C@@H](O)[C@H](O)C(C)O5)[C@H](O)C(C)(O)O4)cc(O)c3c(O)c2C(=O)[C@H]1O[C@H]1C[C@@H](O[C@H]2C[C@@H](O[C@H]3C[C@@H](OC)[C@H](O)C(C)O3)[C@@H](O)C(C)O2)[C@H](O)C(C)O1 (some centres not stated) .
[reply] 1 (yes)

[ask] I would be grateful if you could indicate the recorded call for CC1CCN(C(=O)CCCl)c2ccccc21 (configuration not stated) .
[reply] 0 (no)

[ask] I would be grateful if you could indicate the recorded call for `CC1(C)OB(O)c2cc(-c3nc4ccc5[nH]ncc5c4c4c3CCCC4)ccc21` .
[reply] 0 (no)

[ask] I would be grateful if you could indicate the recorded call for `CC1(C)NCCC[C@]2(C)[C@H]3CC[C@H]4[C@H]5[C@H](C(=O)/C=C/c6cccnc6)CCC[C@]5(CO)CC[C@@]4(C)[C@]3(C)CC[C@@H]12` .
[reply] 0 (no)
